Biological target: T1, cMet-Fc fusion protein (extracellular domain of the cMet receptor expressed as an Fc-fusion protein) (human, UniProt P08581 25-932)
T1 construct: extracellular domain; also called soluble cMet-Fc-fusion protein; soluble cMet receptor; not shown: Fc part
T1 sequence (P08581 25-932): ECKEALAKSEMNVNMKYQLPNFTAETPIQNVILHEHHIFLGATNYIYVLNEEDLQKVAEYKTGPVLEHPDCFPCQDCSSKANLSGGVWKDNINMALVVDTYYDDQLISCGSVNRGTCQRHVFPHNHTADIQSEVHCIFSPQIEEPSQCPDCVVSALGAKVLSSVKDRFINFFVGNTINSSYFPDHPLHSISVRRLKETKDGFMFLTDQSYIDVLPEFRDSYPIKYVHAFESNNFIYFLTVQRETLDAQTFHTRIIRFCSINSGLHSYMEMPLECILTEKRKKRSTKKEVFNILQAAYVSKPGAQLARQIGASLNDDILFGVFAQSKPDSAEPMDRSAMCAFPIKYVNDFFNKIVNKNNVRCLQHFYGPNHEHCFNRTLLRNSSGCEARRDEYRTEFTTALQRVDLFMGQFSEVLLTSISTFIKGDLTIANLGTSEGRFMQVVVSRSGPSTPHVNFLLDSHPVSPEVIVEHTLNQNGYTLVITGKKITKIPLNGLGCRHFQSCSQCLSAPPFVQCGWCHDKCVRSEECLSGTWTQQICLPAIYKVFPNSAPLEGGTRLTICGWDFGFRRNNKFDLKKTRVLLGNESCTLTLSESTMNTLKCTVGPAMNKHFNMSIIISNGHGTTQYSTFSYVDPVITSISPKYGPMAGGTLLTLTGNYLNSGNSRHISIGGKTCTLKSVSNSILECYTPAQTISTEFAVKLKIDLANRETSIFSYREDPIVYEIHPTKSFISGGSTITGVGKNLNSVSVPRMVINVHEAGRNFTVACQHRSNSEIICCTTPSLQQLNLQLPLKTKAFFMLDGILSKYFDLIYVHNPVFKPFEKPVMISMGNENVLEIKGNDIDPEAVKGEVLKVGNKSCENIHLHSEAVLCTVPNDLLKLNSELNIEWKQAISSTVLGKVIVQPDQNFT
Assay: phage ELISA, cMet-Fc vs TRAIL-Fc
Protocol: Protein phage ELISAs using peptide-displaying phage isolates from the various selection campaigns were performed to determine specificity of the peptides for cMet versus an unrelated Fc-fusion protein (TRAIL-Fe). […] The plates were incubated for 2 hours at room temperature and washed with PBST. cMet-binding peptide-displaying phage were detected using an HRP-conjugated anti-M13 antibody.
Flag rule - Protein ELISA (fold over background) less than 5 fold flags Criterion met; the remaining entries get Criterion not met.

Please review the following examples before continuing.
• AGETFCVGNPSFECWSWGT [545-E05 peptide-displaying phage (SEQ ID NO: 094)] = Criterion not met
• GSFILCWWTFCDTNAP [569-C03 peptide-displaying phage (SEQ ID NO: 007)] = Criterion met
• AQSPYIFPIDDSGRQIFVIQWG [76-D09 peptide-displaying phage (SEQ ID NO: 463)] = Criterion met
• AGWFQCKGPPSFECERHGT [336-G04 peptide-displaying phage (SEQ ID NO: 051)] = Criterion not met
• AGNWICTGPPSFGCWYHGT [331-G06 peptide-displaying phage (SEQ ID NO: 078)] = Criterion met
• AGHWICVGPPTFSCQWHGT [330-G09 peptide-displaying phage (SEQ ID NO: 071)] = Criterion not met

Now take the following binder into account.
Quick check: Protein ELISA (fold over background) of AQHVVTLTLIQMPFAFNFEPRM [118-B12 peptide-displaying phage (SEQ ID NO: 484)] under 5 fold?
Criterion met
